# measured.on: Alpha-2A adrenergic receptor (Homo sapiens)
# Sequence (P08913 whole entry): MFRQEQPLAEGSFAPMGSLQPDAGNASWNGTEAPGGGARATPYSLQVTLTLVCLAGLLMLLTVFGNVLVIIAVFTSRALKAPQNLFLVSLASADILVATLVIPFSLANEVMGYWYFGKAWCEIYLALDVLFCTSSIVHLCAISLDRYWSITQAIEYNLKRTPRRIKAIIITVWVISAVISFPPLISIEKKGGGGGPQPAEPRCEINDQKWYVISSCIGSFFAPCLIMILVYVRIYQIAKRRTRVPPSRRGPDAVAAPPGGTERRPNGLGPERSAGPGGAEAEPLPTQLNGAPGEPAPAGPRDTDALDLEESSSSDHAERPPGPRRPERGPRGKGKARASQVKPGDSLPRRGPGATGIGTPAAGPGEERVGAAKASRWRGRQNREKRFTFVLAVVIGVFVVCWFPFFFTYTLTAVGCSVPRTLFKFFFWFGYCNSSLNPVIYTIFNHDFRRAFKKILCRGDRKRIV
# method.notes: Displacement of [3H]RS-79948-197 from recombinant human alpha2A adrenoreceptor expressed in CHOK1 cell membrane by scintillation counting method
# measurement.context: read-out: Ki(app)
reported.metric: Ki (µM)
Numbers only, in µM.

Answered examples (5):
[ask] Provide measured Ki value, entry: "CCC1(c2cnc[nH]2)Cc2ccccc2C1"
[reply] 0.0012

[ask] Please supply the value of reported Ki for the item "CCCCCNc1cc(C)n(CCCCC)c(=O)c1"
[reply] 62

[ask] Note down Ki recorded for "Cc1cc(NCc2ccc(Cl)cc2)cc(=O)n1CCC(C)C"
[reply] 99

[ask] For the compound CN1CCCCC1CCn1cnc2ccccc21 (stereo not drawn) , give its measured Ki value.
[reply] 11

[ask] For the compound "Cc1cc(NCc2ccc(C(F)(F)F)cc2)cc(=O)n1CC(C)C" , report Ki.
[reply] 58

For every item below, please supply its Ki.
1. Cc1cc(NCc2ccccc2)cc(=O)n1CCC(C)C
2. C1COC(NC(C2CC2)C2CC2)=N1
3. CCCCCn1c(C)cc(NCc2ccc(Cl)cc2)cc1=O
4. Cc1cc(NCCC(C)C)cc(=O)n1Cc1ccccc1
5. CCCCCn1c(C)cc(NCc2ccccc2)cc1=O
6. CCCCCNc1cc(C)n(Cc2ccccc2)c(=O)c1
7. CN1CCCCC1CCn1c2ccccc2c2ccccc21 (stereo not drawn)

[reply]
1. 27
2. 0.3
3. 80
4. 110
5. 41
6. 110
7. 1.2

[ask] State, in one line, measured Ki of "Cc1cc(NCCC(C)C)cc(=O)n1CCC(C)C"
[reply] 52

---

# measured.on: Nischarin (Rattus norvegicus, UniProt Q4G017)
# Sequence (Q4G017 whole entry): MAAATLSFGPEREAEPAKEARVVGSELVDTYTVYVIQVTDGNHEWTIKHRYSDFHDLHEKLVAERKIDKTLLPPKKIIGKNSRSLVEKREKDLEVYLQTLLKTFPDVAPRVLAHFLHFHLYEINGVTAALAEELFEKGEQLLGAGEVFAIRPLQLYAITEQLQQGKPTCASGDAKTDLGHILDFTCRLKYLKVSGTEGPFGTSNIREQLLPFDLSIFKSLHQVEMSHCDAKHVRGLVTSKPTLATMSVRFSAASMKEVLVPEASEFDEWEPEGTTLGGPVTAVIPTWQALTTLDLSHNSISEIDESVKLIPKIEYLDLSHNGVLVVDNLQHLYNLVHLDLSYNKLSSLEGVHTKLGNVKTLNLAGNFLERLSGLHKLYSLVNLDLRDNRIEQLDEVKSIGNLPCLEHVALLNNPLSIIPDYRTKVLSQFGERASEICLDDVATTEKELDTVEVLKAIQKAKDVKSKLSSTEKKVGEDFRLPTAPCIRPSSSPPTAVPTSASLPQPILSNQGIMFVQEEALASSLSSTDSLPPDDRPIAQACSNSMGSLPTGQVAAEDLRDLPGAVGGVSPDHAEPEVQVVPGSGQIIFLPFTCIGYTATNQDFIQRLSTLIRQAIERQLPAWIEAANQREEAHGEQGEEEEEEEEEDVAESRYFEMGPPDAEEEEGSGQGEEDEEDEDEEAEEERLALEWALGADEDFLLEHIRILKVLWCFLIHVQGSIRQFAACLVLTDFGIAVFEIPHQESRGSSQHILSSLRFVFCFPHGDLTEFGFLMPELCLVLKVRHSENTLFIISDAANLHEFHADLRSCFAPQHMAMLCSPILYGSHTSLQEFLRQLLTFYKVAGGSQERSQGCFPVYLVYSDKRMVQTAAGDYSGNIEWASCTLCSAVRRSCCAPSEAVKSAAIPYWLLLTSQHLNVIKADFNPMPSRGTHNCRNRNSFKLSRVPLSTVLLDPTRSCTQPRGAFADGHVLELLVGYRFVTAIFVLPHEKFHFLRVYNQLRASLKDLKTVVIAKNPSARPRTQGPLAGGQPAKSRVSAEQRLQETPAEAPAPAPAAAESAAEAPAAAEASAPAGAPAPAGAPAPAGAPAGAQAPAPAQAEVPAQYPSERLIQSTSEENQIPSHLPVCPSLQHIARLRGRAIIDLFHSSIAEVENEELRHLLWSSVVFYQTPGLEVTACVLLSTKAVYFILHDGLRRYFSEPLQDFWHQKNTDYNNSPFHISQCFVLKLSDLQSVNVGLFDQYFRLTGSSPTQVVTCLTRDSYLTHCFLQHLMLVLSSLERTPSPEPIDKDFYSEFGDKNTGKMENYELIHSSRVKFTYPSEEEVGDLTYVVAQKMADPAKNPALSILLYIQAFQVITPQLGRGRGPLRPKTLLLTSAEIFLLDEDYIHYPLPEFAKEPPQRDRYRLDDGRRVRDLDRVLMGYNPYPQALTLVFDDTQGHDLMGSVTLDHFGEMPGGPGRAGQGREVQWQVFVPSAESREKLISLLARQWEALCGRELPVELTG
# method.notes: Displacement of [125I]PIC from Imidazoline-1 receptor in rat PC12 cell membrane incubated for 30 mins by gamma counting method
# Format: cell membranes, PC-12
Exercise: for every item that follows, state its recorded log10 of Ki.
The base-10 logarithm of Ki, taken with Ki in nM, is what appears here.

Solved cases (5 shown):
[ask] Supply reported log10 of Ki belonging to this compound: CC(Oc1c(Cl)cccc1Cl)C1=NCCN1 (stereo unspecified)
[reply] 0.75

[ask] Give a short answer stating reported log10 of Ki for "Clc1cccc2c1CN(NC1=NCCN1)C2" .
[reply] 1.45

[ask] Specify log10 of Ki for "C1COC(NC(C2CC2)C2CC2)=N1" and stop.
[reply] 1.10

[ask] Please report the measured log10 of Ki for "Clc1cccc(Cl)c1N=C1NCCN1"
[reply] 2.10

[ask] Name the recorded log10 of Ki of the item "Clc1cc(I)cc(Cl)c1N=C1NCCN1" in your answer.
[reply] -0.10

Attention now turns to another entry.
[ask] Report measured log10 of Ki; entry is CC1CCC(=Nc2ccc(I)cc2Cl)N1 (stereo unspecified)
[reply] -0.75

---

# System: K562
# method.notes: Antiproliferative activity against human K562 cells assessed as inhibition of cell survival after 48 hrs by MTT assay
# Assay type: functional, cell-based
# measurement.context: K562, 48 h
pIC50: −log10 of the molar value.
Short version: pIC50 at least 4 is true, less is false.

[ask] // inclusive: pIC50 at least 4? input: "Cc1cc(NCc2ccccc2)cc(=O)n1CCC(C)C"
[reply] false

[ask] Kindly determine if pIC50 recorded for CCC1(C2=NCCN2)Cc2ccccc2O1 (centres undefined) is above or exactly 4.
[reply] false

[ask] Could you verify whether the entry "COc1cccc2c1C(=O)c1c(O)c3c(c(O)c1C2=O)C[C@@](O)(C(=O)CO)C[C@@H]3O[C@H]1C[C@H](N)[C@H](O)[C@H](C)O1" shows pIC50 of no less than 4?
[reply] true

[ask] Item "Cc1cc(NCc2ccc(C(F)(F)F)cc2)cc(=O)n1CC(C)C" with pIC50 of 4 or above?
[reply] false

Others:
[ask] For this compound, is measured pIC50 4 or higher? "Cc1cc(NCCC(C)C)cc(=O)n1Cc1ccccc1"
[reply] false

[ask] Textbook exercise: given the entry "CCCCCn1c(C)cc(NCc2ccc(Cl)cc2)cc1=O" , state whether its pIC50 is greater than or equal to 4.
[reply] false

[ask] Check if pIC50 >= 4 (inclusive). Item: "CCCCCn1c(C)cc(NCc2ccccc2)cc1=O"
[reply] false

[ask] Exam item: decide whether the reported pIC50 for "Cc1cc(NCc2ccc(Cl)cc2)cc(=O)n1CCC(C)C" is at least 4.
[reply] false

[ask] Determine whether this compound has pIC50 no lower than 4: "C1COC(NC(C2CC2)C2CC2)=N1"
[reply] true

[ask] Item "CCCCCNc1cc(C)n(Cc2ccccc2)c(=O)c1" with pIC50 of 4 or above?
[reply] false

[ask] Dear colleague, could you confirm whether CN1CCCCC1CCn1cnc2ccccc21 (centres undefined) has pIC50 at or above 4?
[reply] false

[ask] Please indicate if the recorded pIC50 for CN1CCCCC1CCn1c2ccccc2c2ccccc21 (centres undefined) meets or exceeds 4.
[reply] true

---

Can you tell me pKi for the items I'm about to list?
# measured.on: Nischarin (Rattus norvegicus)
# method.notes: Displacement of [125I]PIC from Imidazoline-1 receptor in rat PC12 cell membrane by gamma counting method
# Assay type: cell membranes, PC-12
Answers are plain numbers, as −log10 of the molar value.

# count of solved cases: 3
[ask] Name the recorded pKi of the item "c1ccc([C@H]2C[C@@H]2C2=NCCN2)cc1" in your answer.
[reply] 6.46

[ask] Please give the documented pKi of CC(CC1=NCCN1)c1ccccc1 (centres undefined)
[reply] 5.14

[ask] Give me measured pKi, please, for this compound: c1ccc2c(c1)OCC(C1=NCCN1)O2 (centres undefined)
[reply] 5.90

Continue with the next compound.
[ask] Answer with the recorded pKi of "C(=C\c1ccccc1)/C1=NCCN1" only.
[reply] 7.72

---

# measured.on: Alpha-2A adrenergic receptor (Homo sapiens)
# Sequence (P08913 whole entry): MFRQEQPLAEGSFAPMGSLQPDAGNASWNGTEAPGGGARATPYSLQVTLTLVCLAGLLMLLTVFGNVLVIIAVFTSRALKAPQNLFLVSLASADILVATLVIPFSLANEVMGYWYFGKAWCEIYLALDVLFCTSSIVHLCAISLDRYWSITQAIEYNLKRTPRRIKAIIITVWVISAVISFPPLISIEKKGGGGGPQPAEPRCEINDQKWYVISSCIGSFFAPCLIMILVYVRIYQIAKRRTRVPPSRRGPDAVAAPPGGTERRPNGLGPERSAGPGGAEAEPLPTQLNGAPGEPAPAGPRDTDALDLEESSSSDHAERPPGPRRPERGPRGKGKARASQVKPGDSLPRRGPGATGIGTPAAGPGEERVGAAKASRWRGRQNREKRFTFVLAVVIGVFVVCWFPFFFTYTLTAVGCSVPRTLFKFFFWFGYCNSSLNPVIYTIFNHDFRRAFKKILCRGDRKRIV
# method.notes: Intrinsic activity at recombinant human alpha2A adrenoreceptor expressed in CHOK1 cell membrane incubated for 30 mins by [35S]GTPgammaS binding assay relative to adrenaline
# Type: cell membranes
# measurement.context: CHO-K1, human, 0.5 h; read-out: Intrinsic activity
Assignment: determine reported Emax for the given molecules.
One number for each entry, in %.

Below, each entry is followed by its recorded Emax result.
[ask] Give the reported Emax for this molecule. CN1CCCCC1CCn1c2ccccc2c2ccccc21 (centres undefined)
[reply] -3

[ask] Report Emax, nothing else, for this molecule: CN1CCCCC1CCn1cnc2ccccc21 (centres undefined)
[reply] -6

[ask] Answer with the recorded Emax for the molecule listed here: "Cc1cc(NCCC(C)C)cc(=O)n1Cc1ccccc1"
[reply] -2

[ask] Quote Emax reported for "CCCCCNc1cc(C)n(CCCCC)c(=O)c1" please.
[reply] -18

[ask] Give Emax for the following molecule: CCC1(C2=NCCN2)Cc2ccccc2O1 (centres undefined)
[reply] -13

[ask] Determine from records and report Emax for "Cc1cccc([C@H](C)c2c[nH]cn2)c1C"
[reply] 63

[ask] Name the recorded Emax of the item "C1COC(NC(C2CC2)C2CC2)=N1" in your answer.
[reply] 54

[ask] Answer with the recorded Emax for the molecule listed here: "CCCCCNc1cc(C)n(Cc2ccccc2)c(=O)c1"
[reply] -8

[ask] Give the reported Emax for this molecule. "Cc1cc(NCc2ccccc2)cc(=O)n1CCC(C)C"
[reply] -10

[ask] Return Emax (reported value) for this molecule: "Cc1cc(NCCC(C)C)cc(=O)n1CCC(C)C"
[reply] -17

For every listed record, write down its Emax.
1. Cc1cc(NCc2ccc(Cl)cc2)cc(=O)n1CCC(C)C
2. CCCCCn1c(C)cc(NCc2ccc(Cl)cc2)cc1=O
3. Cc1cc(NCc2ccc(C(F)(F)F)cc2)cc(=O)n1CC(C)C

[reply]
1. -1
2. 0
3. -6

[ask] Give the reported Emax for this molecule. "CCCCCn1c(C)cc(NCc2ccccc2)cc1=O"
[reply] -12

Recorded values, source ChEMBL document CHEMBL3813687.
